- ASSAYED_SYSTEM: TRAILR2 receptor on the surface of human tumor cells (human, UniProt O14763 56-440)
- ASSAY_REMARKS: cell-based or functional assay
MEASURED_PROPERTY: IC50, cytotoxic effect on NCI-H460 cells (CellTiter-Glo, 72 h) (µg/mL)

binder="Zapadcine-1b (antibody, V domains shown, MMAD coupled through linker Mc-Vc-PAB by thiol conventional coupling, cleavable; positions not given) VH: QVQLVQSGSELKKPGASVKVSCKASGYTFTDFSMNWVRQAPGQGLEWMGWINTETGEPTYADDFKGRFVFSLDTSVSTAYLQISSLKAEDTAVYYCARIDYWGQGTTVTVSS VL: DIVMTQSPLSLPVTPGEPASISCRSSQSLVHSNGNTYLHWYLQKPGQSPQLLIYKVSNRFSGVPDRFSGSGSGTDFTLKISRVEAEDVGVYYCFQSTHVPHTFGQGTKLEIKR" obs_value=0.178
binder="Zapadcine-1c (antibody, V domains shown, MMAD coupled through linker Py-MAA by thiol bridge coupling, non-cleavable; positions not given) VH: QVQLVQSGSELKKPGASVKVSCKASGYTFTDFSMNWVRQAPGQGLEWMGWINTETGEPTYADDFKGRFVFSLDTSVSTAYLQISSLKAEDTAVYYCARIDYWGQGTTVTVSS VL: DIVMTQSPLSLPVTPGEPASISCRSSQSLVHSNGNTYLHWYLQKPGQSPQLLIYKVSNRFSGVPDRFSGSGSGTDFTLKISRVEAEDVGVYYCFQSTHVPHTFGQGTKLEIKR" obs_value=0.0651
binder="Zapadcine-1a (antibody, V domains shown, MMAD coupled through linker Py-Vc-PAB by thiol (disulfide) bridge coupling, cleavable; positions not given) VH: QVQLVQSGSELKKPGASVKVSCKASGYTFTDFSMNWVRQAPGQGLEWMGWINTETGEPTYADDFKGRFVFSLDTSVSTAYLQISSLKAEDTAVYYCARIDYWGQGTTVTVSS VL: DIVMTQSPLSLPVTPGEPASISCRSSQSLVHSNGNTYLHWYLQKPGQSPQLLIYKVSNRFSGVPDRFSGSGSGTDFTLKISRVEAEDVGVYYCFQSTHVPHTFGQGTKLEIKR" obs_value=0.0865
binder="Zapadcine-1d (antibody, V domains shown, MMAF coupled through linker Mc-Vc-PAB by thiol conventional coupling, cleavable; positions not given) VH: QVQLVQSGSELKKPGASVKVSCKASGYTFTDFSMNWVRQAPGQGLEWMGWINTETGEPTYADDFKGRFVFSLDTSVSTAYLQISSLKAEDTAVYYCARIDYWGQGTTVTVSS VL: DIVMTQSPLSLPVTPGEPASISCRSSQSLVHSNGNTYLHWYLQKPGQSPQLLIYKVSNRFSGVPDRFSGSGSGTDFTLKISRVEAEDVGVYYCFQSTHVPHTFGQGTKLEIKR" obs_value=1.03
